Source: ChEMBL document CHEMBL3860045

assay: Drug uptake in cannulated Sprague-Dawley rat brain at 1 mg/kg, iv administered twice at 24 hrs interval followed by 0.75 min of isoflurane treatment post 15 min second dose measured after […] by LC-MS/MS analysis; type: ADME, organism-based; settings: read-out: Drug uptake

[
  {
    "Cpd Smiles": "COc1ccc(C(=O)NCc2cc(C(C)C)no2)cc1OC1CCN(C)CC1",
    "concentration at […], ng/g": 23.4
  },
  {
    "Cpd Smiles": "CC(C)c1cc(CNC(=O)c2ccc(Cl)c(OC3CCN(C)CC3)c2)on1",
    "concentration at […], ng/g": 16.3
  }
]
